Below is a list of entries, each paired with its recorded MCP-1 conc. value.
- Test system: MCP-1 Induction by CRP
- ASSAY INFO: Modulation of CRP effects by statin, aspirin and PPAR activators: MCP-1 secretion in HUVEC, sandwich ELISA
- Assay type: cell-based, human
- CONDITIONS USED: CRP 100 μg/mL + test substance 100 μmol/L
TEST READOUT: MCP-1 conc. (ng/mL)

> print(dat)
                                   molecule  test.readout  observed.measurement
1  CC1(COc2ccc(CC3SC(=O)NC3=O)cc2)CCCCC1 (stereo not shown)   MCP-1 conc.                   8.7
2  CC(C)OC(=O)C(C)(C)Oc1ccc(C(=O)c2ccc(Cl)cc2)cc1 [fenofibrate]   MCP-1 conc.                   2.1
3       Cc1cccc(Nc2cc(Cl)nc(SCC(=O)O)n2)c1C   MCP-1 conc.                   4.2
4                     CC(=O)Oc1ccccc1C(=O)O   MCP-1 conc.                  14.6

The origin of these recorded values is patent US6764826B2.
